System: MCF7
Experimental Protocol: NCI tumour cell line growth inhibition, 48 h
The source made the active and inactive calls. Rule as the data show it: active = GI50 up to about 1.1 µM and inactive = higher.
Classes to choose from: active, inactive

Reference set (3 entries):
Compound	Assay Target	Class Label
COc1ccc(-n2cnc3c(NC(CCSC)C(=O)O)ncnc32)cc1 (stereo not drawn)	MCF7	inactive
CN(C)c1ccc(/N=C2/C=CC(=C(C#N)C#N)c3ccccc32)cc1	MCF7	active
CNC(=O)c1cc(NC(=O)N(CCC#N)CCN(C(=O)N[C@@H](Cc2ccccc2)C(=O)N[C@@H](CC(C)C)C(=O)NC)c2ccccc2)ccc1OC	MCF7	inactive

# ---- query compound ----
Task: // param item: CC(=O)O[C@@H]1[C@@H](O)C2=C3[C@]4(C)[C@@H]1C(C)(C)C(=O)C[C@@H]4[C@]3(O)[C@H](OC(C)=O)[C@@]1(C[C@@H]1C)C2=O ; yields the recorded call
Result: inactive
